The measured values listed here are drawn from patent US20180066015A1.

- study_system: Recombinant human hepsin (4776-SE-010, R&D Systems), activated (human, UniProt P05981)
- protocol_description: fluorogenic inhibition assay
- Description: […]
pKi: −log10 of the molar value. Non-standard residues stand in square brackets, D forms with d. No end group written: not given here. *: point of attachment. kbt = C-terminal ketobenzothiazole, c1ccc2sc(*)nc2c1; Kbt = ketobenzothiazole, c1ccc2sc(*)nc2c1; Fmoc = O=C(OCC1c2ccccc2-c2ccccc21)*
Decide using pKi: a value greater than or equal to 9 is true, a smaller one is false.

Examples from the recorded data:
Kindly determine if pKi recorded for H-[dW]-Leu-Arg-{kbt-OH} [H-dWLR-kbt-COOH] is above or exactly 9. false

Kindly determine if pKi recorded for Ac-KQLR-Kbt (SMILES CC(=O)N[C@@H](CCCCN)C(=O)N[C@@H](CCC(N)=O)C(=O)N[C@@H](CC(C)C)C(=O)N[C@@H](CCCNC(=N)N)C(=O)c1nc2ccccc2s1) [Ac-KQLR(SEQ ID NO: 1)-Kbt] is above or exactly 9. true

Kindly determine if pKi recorded for H-Trp-Phe-Arg-kbt [H-WFR-kbt] is above or exactly 9. false

Kindly determine if pKi recorded for Ac-SKLR (not fully specified (C-terminus)) [Ac-SKLR(SEQ ID NO: 10)-Kbt-Trp-NH2] is above or exactly 9. true

For the next question, use this binder.
Kindly determine if pKi recorded for Fmoc-Lys-Arg-kbt [Fmoc-KR-kbt] is above or exactly 9. false
